Reference for the values: patent US20250326867A1

Target Entity: the molecule itself
Method Description: size-exclusion chromatography, self-association (homodimer)
Property Measured: binding result

>>> reported_measurement("JD (designed binder, Designed homodimer subunit, after TEV cleavage) SGSSDEEYARMSAELAEEAAKEALEQAKREGDEDARRVAEELEKQAEEARRKKDFDLANLVLMAAIILLLALIILELAKKAGNEQMEASGLSLLATAALLAAAGGENSEDARKALEAALRLAERATEVLEKIAKKGETALEKAIAAGTLVMLIQIIIQIAELLSKLGDTEEAKKVLDIAIELIKRVTEILERIAKKADTDILAQAAAGHLIYLIQLLMQISILLRRLGNIDEAFKVLEEARELAERVRELLERIAKNSDK")
"binds"
>>> reported_measurement("SP1 (designed binder, De novo designed subunit of a C2 homodimer) GGDSRELIARYQILLAELAAIRADIAAERTGDPYVRKLARELKRLAQEAAEEVKRDPSSSDVNMALLLILLMIELAVRALEAAERTGDPEVRELAAELVWLAVEAAEEVQRNPSSSDVWLALHLIMLAIWAAVAALEAAERTGDPEVRELARELVRLAVEAAEEVQRNPSSKEVYMALLLILIAILEAVLSLLRAERSGDPEKREKARERVREAVERAEEVQR")
"binds"
>>> reported_measurement("D13_H60B (designed binder, Designed homodimer subunit, after TEV cleavage) SGSGSEEKEWQLLTWLLIMIIKTLKEMLEEDPNDEEIKKILELLWQISKTQQDDPHNEEQKEWLHLLAAIILALRLVQEMLKEDPNDEEIEKILELLKQILRTLREDPHNEEQKAWLLLLVIIIALLDSVQEMLKEDPNDEEIEKILELLKQILRTLREDPHNEEQKQWLIQLINALILLLFIQEKLKEDPNDEEAEEELERLKEQLRRLRE")
"binds"
